# test_system: S1P1 (Homo sapiens (Human), UniProt P21453)
# Sequence (P21453 whole entry): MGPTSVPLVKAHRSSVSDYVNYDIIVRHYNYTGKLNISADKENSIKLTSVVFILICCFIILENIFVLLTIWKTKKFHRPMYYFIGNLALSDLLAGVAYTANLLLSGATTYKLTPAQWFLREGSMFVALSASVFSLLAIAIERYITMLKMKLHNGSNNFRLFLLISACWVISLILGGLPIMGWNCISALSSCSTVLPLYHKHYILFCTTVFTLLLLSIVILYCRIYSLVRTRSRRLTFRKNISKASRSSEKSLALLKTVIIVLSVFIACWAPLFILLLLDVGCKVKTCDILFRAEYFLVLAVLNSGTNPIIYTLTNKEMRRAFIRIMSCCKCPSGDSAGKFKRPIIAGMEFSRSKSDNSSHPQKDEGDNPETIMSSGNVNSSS
Recorded pIC50 values for a group of molecules are listed next.
Note on pIC50: it is the negative log10 of concentration, concentration in mol/L.

Worked examples follow.
* CC(=NOCCCc1ccccc1)c1ccc([C@H]2CC[C@](N)(COP(=O)(O)O)C2)cc1 | 7.50
* C/C(=N\OCCc1ccccc1)c1ccc([C@@H]2CC[C@](N)(COP(=O)(O)O)C2)cc1 | 7.21
* CC(=NOCCOc1ccccc1)c1ccc([C@@H]2CC[C@](N)(COP(=O)(O)O)C2)cc1 | 8.28
* CC(=NOCC1CCCCC1)c1ccc([C@@H]2CC[C@](N)(COP(=O)(O)O)C2)cc1 | 7.82
* C/C(=N\OCc1ccc(C2CCCCC2)c(C(F)(F)F)c1)c1ccc([C@@H]2CC[C@](N)(COP(=O)(O)O)C2)cc1 | 7.55

So what pIC50 did C/C(=N\OCc1ccc(C2CCCCC2)c(C(F)(F)F)c1)c1ccc(C(=O)N2CCCC(N)(COP(=O)(O)O)C2)cc1 (single isomer, unassigned) get with S1P1 (Homo sapiens (Human), UniProt P21453)? 7.21

So what pIC50 did C/C(=N\OCc1ccc(C2CCCCC2)c(C(F)(F)F)c1)c1ccc(C(=O)N2CCC(N)(COP(=O)(O)O)C2)cc1 (single isomer, unassigned) get with S1P1 (Homo sapiens (Human), UniProt P21453)? 7.55
